The measured values listed here are drawn from patent US12398154B2.

Target: KRas G12R (Homo sapiens, UniProt P01116, G12R);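 further: TR-FRET displacement assay of compound binding to KRas, read after one hour at room temperature, potency from a four-parameter fit of percent-of-control values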
Sequence (P01116 1-169 isoform P01116-2 G12R): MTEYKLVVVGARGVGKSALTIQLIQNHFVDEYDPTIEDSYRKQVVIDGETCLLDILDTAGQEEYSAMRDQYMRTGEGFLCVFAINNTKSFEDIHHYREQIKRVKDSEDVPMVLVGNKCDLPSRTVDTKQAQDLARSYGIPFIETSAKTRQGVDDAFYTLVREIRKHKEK
Assay: biochemical
pIC50: −log10 of the molar value.
# pIC50 binned as I: < 6; II: ≥ 6 and < 8; III: ≥ 8

COMPOUND	TARGET_OR_TEST_SYSTEM	GROUP_LABEL
Cc1c(F)ccc2cc(O)cc(-c3ncc4c(N5CCCC(CS(N)(=O)=O)C5)nc(OC[C@@]56CCCN5C[C@H](F)C6)nc4c3F)c12 (stereo partly shown)	KRas G12R (Homo sapiens, UniProt P01116, G12R)	III
Nc1cc2n(n1)CCN(c1nc(OCC34CCCN3CCC4)nc3c(F)c(-c4cccc5cccc(F)c45)ncc13)C2	KRas G12R (Homo sapiens, UniProt P01116, G12R)	I
O=C1NC(=O)C2(CCCN(c3nc(OCC45CCCN4CCC5)nc4c(F)c(-c5cccc6cccc(C(F)F)c56)ncc34)C2)N1 (stereo not shown)	KRas G12R (Homo sapiens, UniProt P01116, G12R)	II
C[C@@]1(O)CCCN(c2nc(OC[C@@]34CCCN3C[C@H](F)C4)nc3c(F)c(-c4cc(O)cc5ccc(F)c(Br)c45)ncc23)C1	KRas G12R (Homo sapiens, UniProt P01116, G12R)	III
C[C@@H]1C[C@@H](O)CN(c2nc(OCC34CCCN3CCC4)nc3c(F)c(-c4cccc5cccc(F)c45)ncc23)C1	KRas G12R (Homo sapiens, UniProt P01116, G12R)	I
CCc1c(F)ccc2cc(O)cc(-c3ncc4c(N5CCCC6(CNC6=O)C5)nc(OC[C@@]56CCCN5C[C@H](F)C6)nc4c3F)c12 (stereo partly shown)	KRas G12R (Homo sapiens, UniProt P01116, G12R)	III
O=c1ccc(CNc2nc(OCC34CCCN3CCC4)nc3c(F)c(-c4cccc5cccc(F)c45)ncc23)c[nH]1	KRas G12R (Homo sapiens, UniProt P01116, G12R)	I
Fc1c(-c2cccc3cccc(F)c23)ncc2c(Nc3cnc4cnccn34)nc(OCC34CCCN3CCC4)nc12	KRas G12R (Homo sapiens, UniProt P01116, G12R)	I
Fc1c(-c2cccc3cccc(F)c23)ncc2c(NCCCc3cc[nH]n3)nc(OCC34CCCN3CCC4)nc12	KRas G12R (Homo sapiens, UniProt P01116, G12R)	I
CCc1c(F)ccc2cc(O)cc(-c3ncc4c(NCC5CNC5=O)nc(OC[C@@]56CCCN5C[C@H](F)C6)nc4c3F)c12 (stereo partly shown)	KRas G12R (Homo sapiens, UniProt P01116, G12R)	III
Oc1cc(-c2ncc3c(N4CCCC(c5ncn[nH]5)C4)nc(OCC45CCCN4CCC5)nc3c2F)c2c(F)c(F)ccc2c1 (stereo not shown)	KRas G12R (Homo sapiens, UniProt P01116, G12R)	III
CCc1c(F)ccc2cc(O)cc(-c3ncc4c(N5C[C@@H]6C(CO)NC(=O)[C@@H]6C5)nc(OC[C@@]56CCCN5C[C@H](F)C6)nc4c3F)c12 (stereo in doubt)	KRas G12R (Homo sapiens, UniProt P01116, G12R)	II
CCc1c(F)ccc2cc(O)cc(-c3ncc4c(NC5CS(=O)(=O)C5)nc(OC[C@@]56CCCN5C[C@H](F)C6)nc4c3F)c12	KRas G12R (Homo sapiens, UniProt P01116, G12R)	III
Fc1c(-c2cccc3cccc(F)c23)ncc2c(N3CCCC(c4cc[nH]n4)C3)nc(OCC34CCCN3CCC4)nc12 (stereo not shown)	KRas G12R (Homo sapiens, UniProt P01116, G12R)	I
Fc1c(-c2cccc3cccc(Cl)c23)ncc2c(NCCCOC(F)F)nc(OCC34CCCN3CCC4)nc12	KRas G12R (Homo sapiens, UniProt P01116, G12R)	I
OC1CCC2(CCCN(c3nc(OCC45CCCN4CCC5)nc4c(F)c(-c5cccc6cccc(F)c56)ncc34)C2)C1 (stereo not shown)	KRas G12R (Homo sapiens, UniProt P01116, G12R)	I
CCc1c(F)ccc2cc(O)cc(-c3ncc4c(N5CCCC6(CNS(=O)(=O)N6)C5)nc(OC[C@@]56CCCN5C[C@H](F)C6)nc4c3F)c12 (stereo partly shown)	KRas G12R (Homo sapiens, UniProt P01116, G12R)	III
CCc1c(F)ccc2cc(O)cc(-c3ncc4c(NCCC(N)=O)nc(OC[C@@]56CCCN5C[C@H](F)C6)nc4c3F)c12	KRas G12R (Homo sapiens, UniProt P01116, G12R)	III
Cc1cc2[nH]ncc2c(-c2ncc3c(N4CCCC5(CC(=O)N5)C4)nc(OCC45CCCN4CCC5)nc3c2F)c1C (stereo not shown)	KRas G12R (Homo sapiens, UniProt P01116, G12R)	II

----------
# maps each entry to its pIC50
Target: KRas G12V (Homo sapiens, UniProt P01116, G12V);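 further: KRas binding measured by TR-FRET displacement at room temperature, IC50 fitted from percent of control values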
Sequence (P01116 1-169 isoform P01116-2 G12V): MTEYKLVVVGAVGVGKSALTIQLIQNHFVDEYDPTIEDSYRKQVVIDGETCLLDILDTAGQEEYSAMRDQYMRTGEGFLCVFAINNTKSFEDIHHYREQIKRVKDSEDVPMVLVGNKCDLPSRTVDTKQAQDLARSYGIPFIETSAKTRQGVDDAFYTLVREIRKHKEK
Test: biochemical
pIC50: −log10 of the molar value.

COMPOUND	CMP	pIC50
Nc1cc2n(n1)CCN(c1nc(OCC34CCCN3CCC4)nc3c(F)c(-c4cccc5cccc(F)c45)ncc13)C2	≤	4.00
OC1CC2CC1CN(c1nc(OCC34CCCN3CCC4)nc3c(F)c(-c4cccc5cccc(F)c45)ncc13)C2 (stereo not drawn)	=	6.10
CCc1c(F)ccc2cc(O)cc(-c3ncc4c(N5CCCn6nc(C(=O)N(C)C)c(F)c6C5)nc(OC[C@@]56CCCN5C[C@H](F)C6)nc4c3F)c12	≥	8.70
CCc1c(F)ccc2cc(O)cc(-c3ncc4c(Nc5ccc6cn[nH]c6c5)nc(OC[C@@]56CCCN5C[C@H](F)C6)nc4c3F)c12	=	8.52
CCc1c(F)ccc2cc(O)cc(-c3ncc4c(N5CCCC6(CCC6O)C5)nc(OC[C@@]56CCCN5C[C@H](F)C6)nc4c3F)c12 (stereo partly drawn)	=	7.82
CCc1c(F)ccc2cc(O)cc(-c3ncc4c(N5CCCC(c6ncn[nH]6)C5)nc(OC[C@@]56CCCN5C[C@H](F)C6)nc4c3F)c12 (stereo partly drawn)	=	8.22

----------
Tested on: pERK in PSN1 cells
Experiment: Inhibition of KRas phosphorylation of ERK (Cisbio HTRF pERK assay)
Details: Homo sapiens, PSN1, 3 h, read-out: Inhibition (HTRF IC50) of KRas-mediated Phosphorylation of ERK, PSN1
pIC50: −log10 of the molar value.
As shown below, each of these molecules has a reported pIC50 value.
PROPERTY_MEASURED: pIC50

MOLECULE	TARGET_OR_TEST_SYSTEM	PROPERTY_MEASURED	CMP	MEASURED
CCc1c(F)ccc2cc(O)cc(-c3ncc4c(N5CCCC6(CC(F)C6)C5)nc(OC[C@@]56CCCN5C[C@H](F)C6)nc4c3F)c12 (stereo partly drawn) [Example 344]	pERK in PSN1 cells	pIC50	≤	5.00
C#Cc1c(F)ccc2cc(O)cc(-c3ncc4c(N5CCOCC(CO)C5)nc(OC[C@@]56CCCN5C[C@H](F)C6)nc4c3F)c12 (stereo partly drawn) [Example 391]	pERK in PSN1 cells	pIC50	=	5.40
CCc1c(F)ccc2cc(O)cc(-c3ncc4c(N5CCCCC(S(C)(=O)=O)C5)nc(OC[C@@]56CCCN5C[C@H](F)C6)nc4c3F)c12 (stereo partly drawn) [Example 308]	pERK in PSN1 cells	pIC50	≤	5.00
CCc1c(F)ccc2cc(O)cc(-c3ncc4c(N5CCC[C@@](C)(O)C5)nc(OC[C@@H]5C[C@@H](OC(=O)NC)CN5C)nc4c3F)c12 [Example 12]	pERK in PSN1 cells	pIC50	≤	5.00
CCc1c(F)ccc2cc(O)cc(-c3ncc4c(N5CCC[C@@](C)(O)C5)nc(OC[C@]56CCCN5[C@H](COC(=O)N(C)C)CC6)nc4c3F)c12 [Example 313]	pERK in PSN1 cells	pIC50	=	5.67
CCc1c(F)ccc2cc(O)cc(-c3ncc4c(N5CCC[C@]6(C5)NC(=O)NC6=O)nc(OCC5(CN6CCCC6)CC5)nc4c3F)c12 [Example 322]	pERK in PSN1 cells	pIC50	=	5.04
CCc1c(F)ccc2cc(O)cc(-c3ncc4c(NC56CC(CO)(C5)C6)nc(OC[C@@]56CCCN5C[C@H](F)C6)nc4c3F)c12 [Example 167]	pERK in PSN1 cells	pIC50	≤	5.00
CCc1c(F)ccc2cc(O)cc(-c3ncc4c(NCC5CC(=O)NC5=O)nc(OC[C@@]56CCCN5C[C@H](F)C6)nc4c3F)c12 (stereo partly drawn) [Example 367]	pERK in PSN1 cells	pIC50	≤	5.00
CCc1c(F)ccc2cc(O)cc(-c3ncc4c(N5CCOC[C@@](C)(O)C5)nc(OC[C@@]56CCCN5C[C@H](F)C6)nc4c3F)c12 [Example 200]	pERK in PSN1 cells	pIC50	=	6.00
CCc1c(F)ccc2cc(O)cc(-c3ncc4c(N5CCOC[C@@](C)(O)C5)nc(OCC5(CN(C)C)CC5)nc4c3F)c12 [Example 361]	pERK in PSN1 cells	pIC50	=	5.17
CCc1c(F)ccc2cc(O)cc(-c3ncc4c(NCC5CCC(=O)N5)nc(OC[C@@]56CCCN5C[C@H](F)C6)nc4c3F)c12 (stereo partly drawn) [Example 371]	pERK in PSN1 cells	pIC50	≤	5.00
CCc1c(F)ccc2cc(O)cc(-c3ncc4c(N5CCC[C@@](C)(O)C5)nc(OC[C@@]56CCCN5[C@H](COC(=O)N5CCOCC5)CC6)nc4c3F)c12 [Example 511]	pERK in PSN1 cells	pIC50	=	5.98
